- testedSystem: Orexin/Hypocretin receptor type 1 (Rattus norvegicus, UniProt P56718)
- Sequence (P56718 whole entry): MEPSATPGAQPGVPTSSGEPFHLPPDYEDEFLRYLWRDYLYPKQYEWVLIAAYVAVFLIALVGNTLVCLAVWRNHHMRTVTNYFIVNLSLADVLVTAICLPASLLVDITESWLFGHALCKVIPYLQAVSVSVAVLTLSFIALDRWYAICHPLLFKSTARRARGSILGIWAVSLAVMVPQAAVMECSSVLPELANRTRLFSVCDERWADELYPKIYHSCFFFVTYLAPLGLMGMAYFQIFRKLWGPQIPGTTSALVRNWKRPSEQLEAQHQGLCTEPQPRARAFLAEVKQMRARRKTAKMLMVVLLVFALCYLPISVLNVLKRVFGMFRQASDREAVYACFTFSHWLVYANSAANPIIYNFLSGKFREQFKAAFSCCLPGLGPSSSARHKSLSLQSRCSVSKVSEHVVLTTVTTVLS
- assayNotes: Radioligand Binding Assay: Compound potency can be assessed by a radioligand binding assay (described in Bergman et. al. Bioorg. Med. Chem. Lett. 2008, 18, 1425-1430) in which the inhibition constant (Ki) is determined in membranes prepared from CHO cells expressing either the orexin-1 (OX1) or orexin-2 (OX2) receptor.
- Assay type: cell membranes
Please provide measured Ki for the entries that follow.
Express your answer in µM, writing the number without its unit.

What Ki value was documented for this compound, C[C@@H]1CC[C@@H](Oc2ccnc3c(F)cccc23)CN1C(=O)c1ccccc1-n1nccn1 ?
0.56

What Ki value was documented for this compound, Cc1ccc(-n2nccn2)c(C(=O)N2C[C@H](Nc3nccc4ccccc34)CC[C@H]2C)c1 ?
0.00325

What Ki value was documented for this compound, C[C@@H]1CC[C@@H](Oc2cccc3ocnc23)CN1C(=O)c1ccccc1-n1nccn1 ?
1.3
